Reported PDE4C2 % inib at 10 μM is given for each of the following compounds.
- assaySystem: PDE4C2 (Homo sapiens, UniProt Q08493)
- Construct: purchased Scottish Biomedical (Glasgow, Scotland, UK); host or cells: baculoviral system
- Sequence (Q08493 107-712): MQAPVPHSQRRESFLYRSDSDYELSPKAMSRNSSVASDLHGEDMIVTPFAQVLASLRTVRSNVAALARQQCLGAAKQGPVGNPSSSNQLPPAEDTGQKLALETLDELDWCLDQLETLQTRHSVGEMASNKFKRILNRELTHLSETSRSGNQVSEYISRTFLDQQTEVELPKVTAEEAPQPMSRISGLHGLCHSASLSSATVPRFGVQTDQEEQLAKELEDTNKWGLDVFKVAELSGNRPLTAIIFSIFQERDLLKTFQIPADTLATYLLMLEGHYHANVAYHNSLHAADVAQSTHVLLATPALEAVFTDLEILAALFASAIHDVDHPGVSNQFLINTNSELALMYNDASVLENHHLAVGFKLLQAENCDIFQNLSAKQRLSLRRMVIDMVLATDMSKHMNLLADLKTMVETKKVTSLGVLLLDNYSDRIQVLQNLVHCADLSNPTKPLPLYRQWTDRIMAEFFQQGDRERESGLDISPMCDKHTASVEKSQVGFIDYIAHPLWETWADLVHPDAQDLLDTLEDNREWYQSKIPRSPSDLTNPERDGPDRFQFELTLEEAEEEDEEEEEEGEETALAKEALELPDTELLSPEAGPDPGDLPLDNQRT
- procedureDetails: PDE4C2 enzyme inhibition (IMAP)
- Format: biochemical

{"compound": "COc1ccc(-c2ccn(CCC(=O)N3CC(C)OC(C)C3)n2)cc1OC1CCCC1 (centres unmarked)", "unit": "%", "PDE4C2 % inib at 10 μM": 42}
{"compound": "COc1ccc(-c2ccn(CCC(=O)N3CCOCC3)n2)cc1OC1CCCC1", "unit": "%", "PDE4C2 % inib at 10 μM": 10}
{"compound": "COc1ccc(C2=NOC(CC(=O)N(CCO)CCO)C2)cc1OC1CCCC1 (centres unmarked)", "unit": "%", "PDE4C2 % inib at 10 μM": 40}
{"compound": "COc1ccc(-c2ccn(CC(O)CN3CCOCC3)n2)cc1OC1CCCC1 (centres unmarked)", "unit": "%", "PDE4C2 % inib at 10 μM": 11}
{"compound": "COc1ccc(-c2ccn(CC(O)CN3CC(C)OC(C)C3)n2)cc1OC1CCCC1 (centres unmarked)", "unit": "%", "PDE4C2 % inib at 10 μM": 45}
{"compound": "COc1ccc(C2=NOC(CC(=O)N3CC(C)OC(C)C3)C2)cc1OC1CCCC1 (centres unmarked)", "unit": "%", "PDE4C2 % inib at 10 μM": 23}
{"compound": "COc1ccc(-c2cc(C(O)CN3CC(C)OC(C)C3)on2)cc1OC1CCCC1 (centres unmarked)", "unit": "%", "PDE4C2 % inib at 10 μM": 7}
{"compound": "COc1ccc(C2=NOC(CC(=O)N3CCCC3)C2)cc1OC1CCCC1 (centres unmarked)", "unit": "%", "PDE4C2 % inib at 10 μM": 47}

====

- procedureDetails: Cytotoxicity, lactate-dehydrogenase release
- Assay type: cell-based
- testContext: human, HTLA human neuronal cells

{"molecule": "COc1ccc(-c2ccn(CC(O)CN3CCOCC3)n2)cc1OC1CCCC1 (centres unmarked)", "cytotoxicity at 24 h, 100 µM [%]": 3.3}
{"molecule": "OC(CN1CCOCC1)Cn1ccc(-c2ccc(OC(F)F)c(OC3CCCC3)c2)n1 (centres unmarked)", "cytotoxicity at 24 h, 100 µM [%]": 0.1}

====

Reported PDE4D2 % inib at 10 μM is given for each of the following molecules.
- assaySystem: PDE4D2 (Homo sapiens)
- procedureDetails: PDE4D2 enzyme inhibition (IMAP)
- Type: biochemical
outcomeMeasure: PDE4D2 % inib at 10 μM (%)

{"molecule": "COc1ccc(-c2ccn(CC(O)CN3CC(C)OC(C)C3)n2)cc1OC1CCCC1 (centres unmarked)", "outcomeMeasure": "PDE4D2 % inib at 10 μM", "measValue": 75}
{"molecule": "COc1ccc(-c2ccn(CC(O)CN3CCOCC3)n2)cc1OC1CCCC1 (centres unmarked)", "outcomeMeasure": "PDE4D2 % inib at 10 μM", "measValue": 28}
{"molecule": "COc1ccc(-c2ccn(CC(=O)N3CC(C)OC(C)C3)n2)cc1OC1CCCC1 (centres unmarked)", "outcomeMeasure": "PDE4D2 % inib at 10 μM", "measValue": 13}
{"molecule": "COc1ccc(-c2cc(C(O)CN3CC(C)OC(C)C3)on2)cc1OC1CCCC1 (centres unmarked)", "outcomeMeasure": "PDE4D2 % inib at 10 μM", "measValue": 3}
{"molecule": "COc1ccc(-c2ccn(CC(=O)N3CCOCC3)n2)cc1OC1CCCC1", "outcomeMeasure": "PDE4D2 % inib at 10 μM", "measValue": 23}

====

- procedureDetails: Pharmacokinetic analysis, plasma and brain
- testContext: male, BALB/c, mouse, plasma, sc, 10 mg/kg

{"compound": "COc1ccc(-c2ccn(CC(O)CN3CCOCC3)n2)cc1OC1CCCC1 (stereo not shown)", "half-life (min)": 49.2}

====

Reported PDE4D3 % inib at 10 μM is given for each of the following compounds.
- assaySystem: PDE4D3 (Homo sapiens)
- Sequence (Q08499 1-673 isoform Q08499-2): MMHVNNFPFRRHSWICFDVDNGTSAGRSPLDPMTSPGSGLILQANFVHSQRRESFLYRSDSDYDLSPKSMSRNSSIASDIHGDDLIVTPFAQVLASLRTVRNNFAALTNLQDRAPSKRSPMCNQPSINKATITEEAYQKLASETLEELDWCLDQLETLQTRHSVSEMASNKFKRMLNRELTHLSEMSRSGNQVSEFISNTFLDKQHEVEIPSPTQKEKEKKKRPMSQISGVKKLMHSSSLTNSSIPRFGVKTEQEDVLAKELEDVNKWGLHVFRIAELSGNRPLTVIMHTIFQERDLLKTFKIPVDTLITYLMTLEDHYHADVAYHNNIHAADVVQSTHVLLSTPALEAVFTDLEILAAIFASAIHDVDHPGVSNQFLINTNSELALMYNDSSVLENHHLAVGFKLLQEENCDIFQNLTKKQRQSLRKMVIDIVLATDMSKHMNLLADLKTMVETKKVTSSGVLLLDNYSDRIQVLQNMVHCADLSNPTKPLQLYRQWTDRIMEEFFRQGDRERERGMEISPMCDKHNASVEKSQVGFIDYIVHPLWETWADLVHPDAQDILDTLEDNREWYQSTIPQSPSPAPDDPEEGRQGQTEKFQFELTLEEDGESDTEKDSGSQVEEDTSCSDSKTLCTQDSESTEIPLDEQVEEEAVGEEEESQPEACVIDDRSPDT
- procedureDetails: PDE4D3 enzyme inhibition (IMAP)
- Format: biochemical
- testContext: 10 μM, in duplicate
outcomeMeasure: PDE4D3 % inib at 10 μM (%)

{"compound": "COc1ccc(-c2ccn(CCC(=O)N3CC(C)OC(C)C3)n2)cc1OC1CCCC1 (stereo not drawn)", "measValue": 53}
{"compound": "COc1ccc(C2=NOC(C(=O)N3CCOCC3)C2)cc1OC1CCCC1 (stereo not drawn)", "measValue": 21}
{"compound": "COc1ccc(-c2ccn(CCC(=O)N3CCOCC3)n2)cc1OC1CCCC1", "measValue": 42}
{"compound": "COc1ccc(-c2ccn(CC(=O)N3CCC(O)CC3)c2)cc1OC1CCCC1", "measValue": 9}
{"compound": "COc1ccc(-c2ccn(CC(=O)N3CC(C)OC(C)C3)c2)cc1OC1CCCC1 (stereo not drawn)", "measValue": 13}
{"compound": "COc1ccc(C2=NOC(CC(=O)N3CC(C)OC(C)C3)C2)cc1OC1CCCC1 (stereo not drawn)", "measValue": 51}
{"compound": "COc1ccc(-c2cc(C(=O)N3CCOCC3)on2)cc1OC1CCCC1", "measValue": 41}
{"compound": "COc1ccc(C2=NOC(CC(=O)N(CCO)CCO)C2)cc1OC1CCCC1 (stereo not drawn)", "measValue": 65}
{"compound": "COc1ccc(-c2ccn(CC(O)CN3CCOCC3)c2)cc1OC1CCCC1 (stereo not drawn)", "measValue": 21}

====

Reported PDE4D1 % inib at 10 μM is given for each of the following compounds.
- assaySystem: PDE4D1 (Homo sapiens, UniProt Q08499)
- Sequence (Q08499 1-584 isoform Q08499-4): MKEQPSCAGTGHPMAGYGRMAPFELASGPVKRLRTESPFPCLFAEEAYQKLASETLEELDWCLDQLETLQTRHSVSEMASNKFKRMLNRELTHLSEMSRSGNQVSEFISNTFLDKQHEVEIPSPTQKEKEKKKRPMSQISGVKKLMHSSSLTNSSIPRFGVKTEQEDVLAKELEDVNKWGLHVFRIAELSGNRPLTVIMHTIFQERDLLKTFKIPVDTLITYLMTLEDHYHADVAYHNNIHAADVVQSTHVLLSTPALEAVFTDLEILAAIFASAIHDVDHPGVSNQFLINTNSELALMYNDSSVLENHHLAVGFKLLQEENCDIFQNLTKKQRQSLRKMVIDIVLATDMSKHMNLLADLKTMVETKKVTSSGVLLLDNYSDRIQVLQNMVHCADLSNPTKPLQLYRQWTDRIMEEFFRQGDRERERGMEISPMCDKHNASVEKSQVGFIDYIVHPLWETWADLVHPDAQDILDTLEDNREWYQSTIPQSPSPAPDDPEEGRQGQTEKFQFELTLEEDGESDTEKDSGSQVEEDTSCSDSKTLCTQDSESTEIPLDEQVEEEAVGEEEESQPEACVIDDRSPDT
- procedureDetails: PDE4D1 enzyme inhibition (IMAP)
- Type: biochemical
outcomeMeasure: PDE4D1 % inib at 10 μM

{"compound": "COc1ccc(-c2cc(C(O)CN3CC(C)OC(C)C3)on2)cc1OC1CCCC1 (centres unmarked)", "assaySystem": "PDE4D1 (Homo sapiens, UniProt Q08499)", "outcomeMeasure": "PDE4D1 % inib at 10 μM", "measValue": "2%"}
{"compound": "COc1ccc(-c2ccn(CC(O)CN3CCOCC3)n2)cc1OC1CCCC1 (centres unmarked)", "assaySystem": "PDE4D1 (Homo sapiens, UniProt Q08499)", "outcomeMeasure": "PDE4D1 % inib at 10 μM", "measValue": "34%"}
{"compound": "COc1ccc(-c2ccn(CC(=O)N3CCOCC3)n2)cc1OC1CCCC1", "assaySystem": "PDE4D1 (Homo sapiens, UniProt Q08499)", "outcomeMeasure": "PDE4D1 % inib at 10 μM", "measValue": "42%"}
{"compound": "COc1ccc(-c2ccn(CC(O)CN3CC(C)OC(C)C3)n2)cc1OC1CCCC1 (centres unmarked)", "assaySystem": "PDE4D1 (Homo sapiens, UniProt Q08499)", "outcomeMeasure": "PDE4D1 % inib at 10 μM", "measValue": "77%"}
{"compound": "COc1ccc(-c2ccn(CC(=O)N3CC(C)OC(C)C3)n2)cc1OC1CCCC1 (centres unmarked)", "assaySystem": "PDE4D1 (Homo sapiens, UniProt Q08499)", "outcomeMeasure": "PDE4D1 % inib at 10 μM", "measValue": "18%"}

====

- assaySystem: PDE4A4 (Homo sapiens, UniProt P27815)
- Sequence (P27815 whole entry): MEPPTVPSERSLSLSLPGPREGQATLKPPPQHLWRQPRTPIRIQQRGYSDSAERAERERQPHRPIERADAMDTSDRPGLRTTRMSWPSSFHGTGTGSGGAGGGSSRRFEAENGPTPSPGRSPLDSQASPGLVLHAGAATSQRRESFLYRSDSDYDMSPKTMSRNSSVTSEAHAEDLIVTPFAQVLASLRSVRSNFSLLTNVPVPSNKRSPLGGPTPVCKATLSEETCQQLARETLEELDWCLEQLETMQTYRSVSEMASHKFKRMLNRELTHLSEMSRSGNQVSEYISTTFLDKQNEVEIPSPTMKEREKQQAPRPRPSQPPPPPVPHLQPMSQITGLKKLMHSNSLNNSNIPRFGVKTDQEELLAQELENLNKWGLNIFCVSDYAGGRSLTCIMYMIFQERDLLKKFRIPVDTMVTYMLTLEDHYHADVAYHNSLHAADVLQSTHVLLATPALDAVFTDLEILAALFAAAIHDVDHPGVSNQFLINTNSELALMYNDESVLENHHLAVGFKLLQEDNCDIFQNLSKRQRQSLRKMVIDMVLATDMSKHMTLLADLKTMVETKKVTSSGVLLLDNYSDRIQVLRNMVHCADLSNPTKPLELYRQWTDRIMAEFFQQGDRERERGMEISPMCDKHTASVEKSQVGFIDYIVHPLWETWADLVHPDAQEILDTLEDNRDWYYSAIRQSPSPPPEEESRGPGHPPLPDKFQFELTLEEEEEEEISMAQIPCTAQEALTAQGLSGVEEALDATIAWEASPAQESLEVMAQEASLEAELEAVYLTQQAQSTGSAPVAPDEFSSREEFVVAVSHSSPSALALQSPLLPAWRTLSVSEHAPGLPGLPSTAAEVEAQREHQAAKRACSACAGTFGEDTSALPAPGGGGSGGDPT
- procedureDetails: PDE4A4 enzyme inhibition (IMAP)
- Assay type: biochemical
- testContext: 10 μM
I would appreciate it if you labelled entries satisfied when PDE4A4 % inib at 10 μM is 40% or higher, otherwise not satisfied.

{"molecule": "COc1ccc(C2=NOC(CC(=O)N(CCO)CCO)C2)cc1OC1CCCC1 (centres unmarked)", "discreteLabel": "satisfied"}
{"molecule": "COc1ccc(C2=NOC(CC(=O)N3CCCC3)C2)cc1OC1CCCC1 (centres unmarked)", "discreteLabel": "satisfied"}
{"molecule": "COc1ccc(C2=NOC(CC(=O)N3CC(C)OC(C)C3)C2)cc1OC1CCCC1 (centres unmarked)", "discreteLabel": "satisfied"}
{"molecule": "COc1ccc(-c2cc(C(O)CN3CC(C)OC(C)C3)on2)cc1OC1CCCC1 (centres unmarked)", "discreteLabel": "not satisfied"}
{"molecule": "OC(CN1CCOCC1)Cn1ccc(-c2ccc(OC(F)F)c(OC3CCCC3)c2)n1 (centres unmarked)", "discreteLabel": "not satisfied"}
{"molecule": "COc1ccc(-c2ccn(CCC(=O)N3CC(C)OC(C)C3)n2)cc1OC1CCCC1 (centres unmarked)", "discreteLabel": "not satisfied"}
{"molecule": "COc1ccc(-c2ccn(CC(O)CN3CCOCC3)n2)cc1OC1CCCC1 (centres unmarked)", "discreteLabel": "not satisfied"}
{"molecule": "COc1ccc(-c2ccn(CC(O)CN3CC(C)OC(C)C3)n2)cc1OC1CCCC1 (centres unmarked)", "discreteLabel": "satisfied"}

====

Reported melting point is given for each of the following compounds.
Where a name gives a salt, the structure may show the parent alone.
outcomeMeasure: melting point

{"compound": "COc1ccc(-c2ccn(CC(=O)N3CCOCC3)n2)cc1OC1CCCC1 [XXa]", "outcomeMeasure": "melting point", "measValue": "131 to 132 °C"}
{"compound": "COc1ccc(-c2ccn(CC(=O)N3CC(C)OC(C)C3)n2)cc1OC1CCCC1 (stereo not drawn) [XXb]", "outcomeMeasure": "melting point", "measValue": "99 to 100 °C"}
{"compound": "COc1ccc(-c2ccn(CCC(=O)N3CCOCC3)c2)cc1OC1CCCC1 [XXIVa]", "outcomeMeasure": "melting point", "measValue": "110 to 112 °C"}
{"compound": "COc1ccc(-c2cc(C(O)CN3CCOCC3)on2)cc1OC1CCCC1 (stereo not drawn) [XVIa]", "outcomeMeasure": "melting point", "measValue": "136 to 137 °C"}
{"compound": "COc1ccc(-c2cc(C(=O)CN3CC(C)OC(C)C3)on2)cc1OC1CCCC1 (stereo not drawn) (as salt: hydrochloride) [XVb]", "outcomeMeasure": "melting point", "measValue": "200 °C (dec.)"}
{"compound": "COc1ccc(C2=NOC(CC(=O)N3CCNCC3)C2)cc1OC1CCCC1 (stereo not drawn) [XIVf]", "outcomeMeasure": "melting point", "measValue": "108 to 111 °C"}
{"compound": "COc1ccc(C2=NOC(C(=O)N3CCCCC3)C2)cc1OC1CCCC1 (stereo not drawn) [XIIIe]", "outcomeMeasure": "melting point", "measValue": "130 °C"}
{"compound": "COc1ccc(C2=NOC(CC(=O)N3CCCCC3)C2)cc1OC1CCCC1 (stereo not drawn) [XIVe]", "outcomeMeasure": "melting point", "measValue": "104 to 106 °C"}
{"compound": "COc1ccc(C2=NOC(C(=O)N3CCOCC3)C2)cc1OC1CCCC1 (stereo not drawn) [XIIIa]", "outcomeMeasure": "melting point", "measValue": "115 to 116 °C"}
